Test system: Candida albicans
Protocol: Inhibition of Candida albicans chitin synthase at 1 uM relative to control
Record form. Attribute: inhibition. Fill in for each entry.
Field note: include the unit after the figure.

Task: State its inhibition for this compound: O=C(NCCCNC(=O)[C@@H](O)[C@H](O)C(=O)NC[C@H]1O[C@@H](n2ccc(=O)[nH]c2=O)[C@H](O)[C@@H]1O)[C@@H](O)[C@H](O)C(=O)NC[C@H]1O[C@@H](n2ccc(=O)[nH]c2=O)[C@H](O)[C@@H]1O
Output: 10%

Task: State its inhibition: O=C(NC[C@@H]1O[C@H](n2ccc(=O)[nH]c2=O)[C@@H](O)[C@H]1O)OCCOC(=O)NC[C@H]1O[C@@H](n2ccc(=O)[nH]c2=O)[C@H](O)[C@@H]1O
Output: 32%

Task: Give the measured inhibition for O=C(NC[C@@H]1O[C@H](n2ccc(=O)[nH]c2=O)[C@@H](O)[C@H]1O)OCCOCCOC(=O)NC[C@H]1O[C@@H](n2ccc(=O)[nH]c2=O)[C@H](O)[C@@H]1O
Output: 45%

Task: Give inhibition for the following compound: O=C(NCCNC(=O)[C@@H](O)[C@H](O)C(=O)NC[C@H]1O[C@@H](n2ccc(=O)[nH]c2=O)[C@H](O)[C@@H]1O)[C@@H](O)[C@H](O)C(=O)NC[C@H]1O[C@@H](n2ccc(=O)[nH]c2=O)[C@H](O)[C@@H]1O
Output: 5%

Task: Supply recorded inhibition for NC(=O)[C@@H](O)[C@H](O)C(=O)NC[C@H]1O[C@@H](n2ccc(=O)[nH]c2=O)[C@H](O)[C@@H]1O here.
Output: 20%

Task: Look up and state reported inhibition for NC(=O)[C@H](O)[C@@H](O)C(=O)NC[C@H]1O[C@@H](n2ccc(=O)[nH]c2=O)[C@H](O)[C@@H]1O
Output: 12%

Task: For the compound O=C(NC[C@H]1O[C@@H](n2ccc(=O)[nH]c2=O)[C@H](O)[C@@H]1O)[C@@H](O)[C@H](O)C(=O)NC[C@H]1O[C@@H](n2ccc(=O)[nH]c2=O)[C@H](O)[C@@H]1O , give its measured inhibition value.
Output: 35%

// data source = ChEMBL document CHEMBL5257035
